Biological target: T1, human ROR2-ECD (human, UniProt Q01974 34-403)
T1 construct: extracellular domain; also called hROR2
T1 sequence (Q01974 34-403): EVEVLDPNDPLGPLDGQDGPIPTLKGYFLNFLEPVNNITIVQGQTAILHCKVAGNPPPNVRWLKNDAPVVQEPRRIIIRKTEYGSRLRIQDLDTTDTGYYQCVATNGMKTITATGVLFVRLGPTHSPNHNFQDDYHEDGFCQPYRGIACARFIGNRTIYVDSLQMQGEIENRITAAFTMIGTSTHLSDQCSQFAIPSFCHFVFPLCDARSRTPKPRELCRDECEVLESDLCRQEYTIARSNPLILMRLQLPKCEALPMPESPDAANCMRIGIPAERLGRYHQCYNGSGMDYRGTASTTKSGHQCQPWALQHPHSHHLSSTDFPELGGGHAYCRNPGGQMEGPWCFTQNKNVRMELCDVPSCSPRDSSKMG
Assay: protein ELISA, phage
observed_property: binding result

1. P601-87 (scFv, V domains shown) VH: QVQLQESGPGLVKSSETLSLTCTVSGGSMNNYYWSWIRQPAGKGLEWMGRIYSSGSTNYNPALKSRVTMSVDTSKNQFSLNLSSVTAADTAIYYCARASWSGTYWALFDYWGQGTLVTVSS VL: ETTLTQSPAFMSATPGDKVNISCKASQDIDDDLNWYQQKPGEAPILIIQEATTLVPGIPPRFSGSGFGTDFTLTINSMQSEDVAYYFCLQHDNFPPTFGQGTKVEIK; no binding
2. P601-103 (scFv, V domains shown) VH: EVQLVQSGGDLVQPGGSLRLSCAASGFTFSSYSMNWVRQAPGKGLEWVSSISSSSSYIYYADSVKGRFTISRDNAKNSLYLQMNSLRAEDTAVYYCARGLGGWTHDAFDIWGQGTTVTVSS VL: QSVLTQPASVSGSPGQSITISCTGTTSDVGGYNYVSWYQQHPGKAPKLMIYDVSKRPSGVSNRFSGSKSGNTASLTISGLQAEDEADYYCSSYTSSSTDVFGTGTKLTVL; no binding
3. P601-70 (scFv, V domains shown) VH: EVQLVQSGAELKKPGSSVRVSCKTSGGSFKTHGISWVRQAPGQGLEWMGWINPNSGGALYVDNFQGRATMTRDTSINTAYMELRSLSSDDTAVYYCARGMADLIDVFDIWGQGTMVTVSS VL: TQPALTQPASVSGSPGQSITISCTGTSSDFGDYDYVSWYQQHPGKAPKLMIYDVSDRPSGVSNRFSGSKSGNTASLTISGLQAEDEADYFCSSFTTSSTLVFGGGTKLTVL; no binding
